ASSAY EXPLANATION: Bioavailability of compound in Mice after administration of 5 mg/kg through peroral route
Type: ADME, organism-based
MEASUREMENT SETUP: mouse, in vivo, po, read-out: Bioavailabiility
MEASURED PROPERTY: bioavailability (%)
Field: numeric (%). Do not append units.

What bioavailability value was documented for this molecule, "CN1CCC(Oc2cccc3ncnc(Nc4ccc(OCc5ccccn5)c(Cl)c4)c23)CC1" ? 50

###

EXPERIMENTAL TARGET: Receptor tyrosine-protein kinase erbB-2 (Homo sapiens, UniProt P04626)
Sequence (P04626 whole entry): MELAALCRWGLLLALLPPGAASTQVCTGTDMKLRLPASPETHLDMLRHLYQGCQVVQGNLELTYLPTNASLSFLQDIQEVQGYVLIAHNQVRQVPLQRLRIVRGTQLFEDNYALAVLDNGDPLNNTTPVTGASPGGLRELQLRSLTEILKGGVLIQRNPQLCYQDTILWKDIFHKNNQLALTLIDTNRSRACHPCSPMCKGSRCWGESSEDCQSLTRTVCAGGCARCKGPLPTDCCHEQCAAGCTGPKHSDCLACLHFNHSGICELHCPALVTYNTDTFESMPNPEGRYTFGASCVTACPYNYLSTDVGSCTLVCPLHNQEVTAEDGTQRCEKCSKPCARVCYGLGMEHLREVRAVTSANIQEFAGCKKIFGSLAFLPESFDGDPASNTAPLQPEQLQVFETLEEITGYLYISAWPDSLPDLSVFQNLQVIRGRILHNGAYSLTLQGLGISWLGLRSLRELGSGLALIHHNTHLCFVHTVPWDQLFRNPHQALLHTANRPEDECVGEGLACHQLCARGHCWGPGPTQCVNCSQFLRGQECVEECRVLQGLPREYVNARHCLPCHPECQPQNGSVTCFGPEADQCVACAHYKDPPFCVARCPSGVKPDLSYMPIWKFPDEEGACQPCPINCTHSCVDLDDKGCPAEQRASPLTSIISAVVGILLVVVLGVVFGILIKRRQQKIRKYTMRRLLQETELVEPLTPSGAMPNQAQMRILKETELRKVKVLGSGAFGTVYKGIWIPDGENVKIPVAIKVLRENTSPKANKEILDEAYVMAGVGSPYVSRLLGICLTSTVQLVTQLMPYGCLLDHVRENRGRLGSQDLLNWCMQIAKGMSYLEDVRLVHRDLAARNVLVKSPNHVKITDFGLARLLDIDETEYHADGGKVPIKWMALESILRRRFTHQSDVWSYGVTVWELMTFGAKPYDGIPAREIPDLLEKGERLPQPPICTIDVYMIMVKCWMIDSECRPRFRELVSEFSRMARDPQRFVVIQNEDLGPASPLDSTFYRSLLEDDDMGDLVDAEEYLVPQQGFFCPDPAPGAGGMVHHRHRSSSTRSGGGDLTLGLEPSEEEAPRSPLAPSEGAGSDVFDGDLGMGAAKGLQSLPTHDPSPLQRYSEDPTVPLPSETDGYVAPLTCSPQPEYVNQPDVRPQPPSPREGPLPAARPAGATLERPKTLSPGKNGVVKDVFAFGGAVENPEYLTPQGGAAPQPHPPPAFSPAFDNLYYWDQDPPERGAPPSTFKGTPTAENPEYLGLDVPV
ASSAY EXPLANATION: Inhibitory concentration against erbB2 autophosphorylation in MCF-7 breast carcinoma cell line
Type: functional, cell-based, MCF7
MEASURED PROPERTY: pIC50
// field semantics: pIC50 = negative decimal log of concentration (mol/L)

What pIC50 value was documented for this compound, "CN1CCC(Oc2cccc3ncnc(Nc4ccc(OCc5cccc(F)c5)c(Cl)c4)c23)CC1" ? 7.25

What pIC50 value was documented for this compound, "CN1CCC(Oc2cccc3ncnc(Nc4ccc(OCc5ccccn5)c(Cl)c4)c23)CC1" ? 7.21
